TGT: CRP (Homo sapiens)
ASSAY PROCEDURE: Roche immunoturbidimetric assay: pure CRP
Assay type: binding
Set-up: The final concentrations were 0.73 μM native pentameric CRP; from tissue
CONDITION DESCRIPTION: pure CRP in TC buffer; read-out: IC50 (μM), SD; inhibition of Roche CRP immunoreactivity
Classification field. Basis: IC50. Definitions: class 1 = under 0.7 µM, class 2 = from 0.7 µM up to 1 µM, class 3 = 1 µM and over

1) O=C(CCCCCCCC(=O)NC(C(=O)O)[C@H]1CN2CCC1CC2)NC(C(=O)O)[C@H]1CN2CCC1CC2 (stereo partly shown) :: class 3
2) O=C(O)C(NC(=O)[C@H]1CC[C@H](C(=O)NC(C(=O)O)[C@H]2CN3CCC2CC3)CC1)[C@H]1CN2CCC1CC2 (stereo partly shown) :: class 1
3) C[N+]12CCC(CC1)[C@@H](C(NC(=O)CCCCC(=O)NC(C(=O)O)[C@H]1C[N+]3(C)CCC1CC3)C(=O)O)C2 (stereo partly shown) :: class 3
4) O=C(CCCC(=O)NC(C(=O)O)[C@H]1CN2CCC1CC2)NC(C(=O)O)[C@H]1CN2CCC1CC2 (stereo partly shown) :: class 3
5) O=C(NC(C(=O)O)[C@H]1CN2CCC1CC2)c1ccc(C(=O)NC(C(=O)O)[C@H]2CN3CCC2CC3)cc1 (stereo partly shown) :: class 1
6) O=C(NC(C(=O)O)[C@H]1CN2CCC1CC2)C(=O)NC(C(=O)O)[C@H]1CN2CCC1CC2 (stereo partly shown) :: class 2
7) O=C(NC([C@H]1CN2CCC1CC2)P(=O)(O)OCc1ccccc1)c1ccc(C(=O)NC([C@H]2CN3CCC2CC3)P(=O)(O)OCc2ccccc2)cc1 (stereo partly shown) :: class 2
8) CN(C)CCOP(=O)(O)OCCCCCCCCOP(=O)(O)OCCN(C)C [Dm-BPC8, reference compound] :: class 3
9) CC(C)(CCCCC(C)(C)COP(=O)(O)O[C@@H]1CN2CCC1CC2)COP(=O)(O)O[C@@H]1CN2CCC1CC2 :: class 1
10) C[N+](C)(C)CCOP(=O)([O-])OCCCCCCOP(=O)([O-])OCC[N+](C)(C)C :: class 3
11) O=C(CC(c1ccccc1)C(CC(=O)NC(C(=O)O)[C@H]1CN2CCC1CC2)c1ccccc1)NC(C(=O)O)[C@H]1CN2CCC1CC2 (single isomer, unassigned) [P2B-D peak1] :: class 1

###

Measured IC50 by item
TGT: CRP (Homo sapiens, UniProt P02741)
Sequence (P02741 19-224): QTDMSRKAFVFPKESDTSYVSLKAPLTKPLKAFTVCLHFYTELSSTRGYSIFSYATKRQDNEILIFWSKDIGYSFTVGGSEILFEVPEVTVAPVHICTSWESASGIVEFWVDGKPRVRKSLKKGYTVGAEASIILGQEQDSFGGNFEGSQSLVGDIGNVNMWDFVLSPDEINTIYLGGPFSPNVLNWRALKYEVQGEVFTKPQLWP
ASSAY PROCEDURE: Roche immunoturbidimetric assay: pure CRP
Assay type: binding
Design: The final concentrations were 0.73 μM native pentameric CRP; from tissue
CONDITION DESCRIPTION: pure CRP in TC buffer; read-out: IC50 (μM), SD; inhibition of Roche CRP immunoreactivity
RESULT TYPE: IC50 (µM)

1) O=P(O)(OCCCCCCCCOP(=O)(O)O[C@@H]1CN2CCC1CC2)O[C@@H]1CN2CCC1CC2 [Pk-023] :: 0.6
2) O=C(Cc1ccc(CC(=O)NC(C(=O)O)[C@H]2CN3CCC2CC3)cc1)NC(C(=O)O)[C@H]1CN2CCC1CC2 (some centres unmarked) [Compound P2B-C] :: 2.69
3) O=P(O)(OCCCCCCOP(=O)(O)O[C@@H]1CN2CCC1CC2)O[C@@H]1CN2CCC1CC2 [Pk-025] :: 1.08
4) O=C(CCCCCCC(=O)NC(C(=O)O)[C@H]1CN2CCC1CC2)NC(C(=O)O)[C@H]1CN2CCC1CC2 (some centres unmarked) [Compound P1d-6] :: 9.92
5) O=C(NC(C(=O)O)[C@H]1CN2CCC1CC2)NC(C(=O)O)[C@H]1CN2CCC1CC2 (some centres unmarked) [Compound P2B-G] :: 26.2
